Measured values drawn from the nanobody polyreactivity screen of Harvey et al. (2022) for this set.

Assay: yeast display, Sf9 membrane polyspecificity reagent, FACS + sequencing; frameworks hold sequencing errors
assay-metric: polyreactivity (PSR sort gate)

QVQLVESGGGLVQAGGSLRISCAASGSIFYENTMGWYRQAPGKEREFVAAISRSGGSTYYADSVKGRFTISRDNAKNTVYLQMNSLKPEDTAVYYCAARSRPGYAVYYWGQGTQVTVSS ... high polyreactivity
QVQLVESGGGLVQAGGSLRLSCAASGRILTFNTMGWYRQAPGKERELVAAIRSGGSTYYADSVKGRFTISRDNAKNTVFLQMNSLKPEDTAVYYCRGMGYWGQGTQVTVSS ... high polyreactivity
QVQLVESGGGLVQAGGSLRLCCASSGSTFTYNTMGWYRQAPGKERELVAAISFSSGRTYYADSVKVRFTISRYNAINTVYLHINSLKPEDTAVYYCNARTWETLRGYDYWGQGTQVTVSS ... high polyreactivity
